System: IL-6
Assay: LPS-induced IL-6 production in peritoneal macrophages (ELISA)
Type: cell-based, C57BL/6 mice
Conditions: Mus musculus, Macrophage; macrophages pretreated 1 h, LPS 10 ng/mL, supernatant 6 h; two independent experiments in triplicate; read-out: IC50 ± S.D. (μM) IL-6
Protocol: Peritoneal macrophages were obtained by washing the peritoneal cavities of C57B1/6 mice five days after intraperitoneal instillation of 2 mL of 3% thioglycollate. […] The concentrations of TNF-α, IL-6, and PGE2 were determined by ELISA (R&D System) following the manufacturer’s protocol. Results from the cytokine measurements and cytotoxicity assays were analyzed using the statistical software package GraphPad Prism 9.4.0. […]
METRIC_NAME: IC50 (µM)

| COMPOUND | IC50 (µM) |
| --- | --- |
| COc1cc(CCC(=O)/C=C(\O)CCc2ccc(OC(=O)CCC(=O)OC3CCCc4ccccc43)c(OC)c2)ccc1OC(=O)CCC(=O)OC1CCCc2ccccc21 (stereo not drawn) [Compound 8] | 3.48 |
| COC(=O)CCC(=O)Oc1ccc(CCC(=O)/C=C(\O)CCc2ccc(OC(=O)CCC(=O)OC)c(OC)c2)cc1OC [Compound 11] | 0.17 |
| COc1cc(CCC(=O)/C=C(\O)CCc2ccc(OC(=O)CCC(=O)OC3CCCC3)c(OC)c2)ccc1OC(=O)CCC(=O)OC1CCCC1 [Compound 10] | 3.66 |

(A) COc1cc(CCC(=O)/C=C(\O)CCc2ccc(OC(=O)CCC(=O)OC3c4ccccc4-c4ccccc43)c(OC)c2)ccc1OC(=O)CCC(=O)OC1c2ccccc2-c2ccccc21 [Compound 4]
(B) COc1cc(CCC(=O)/C=C(\O)CCc2ccc(OC(=O)CCC(=O)OC3Cc4ccccc4C3)c(OC)c2)ccc1OC(=O)CCC(=O)OC1Cc2ccccc2C1 [Compound 5]
(C) C=CCOC(=O)CCC(=O)Oc1ccc(CCC(=O)/C=C(\O)CCc2ccc(OC(=O)CCC(=O)OCC=C)c(OC)c2)cc1OC [Compound 12]
Query :: Kindly order the items shown according to IC50, from the highest value down. Form field (ranking): labels in requested order.
Result :: B, A, C
(B: 9.13 µM, A: 4.28 µM, C: 0.72 µM)
